System: K4 kissing-loop RNA reporter;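 also: bound reporter read as fluorescence of individual clusters on recovered sequencing chips by microscopy, with normalized cluster intensities fitted with a binding model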
Experiment: apparent KD of K4 kissing-loop reporter; higher = weaker reporter binding
Conditions: Eterna round: R107; input ligand: tryptophan 2.4 mM
# binarize apparent KD of K4 kissing-loop reporter: threshold 500 nM inclusive, high side t, low side f

Incoming: Test whether the sequence AAGAGAGCGAGAAGGAGCGAGAAAGCUAGUGCAUAUGCACUAGCAAAGCAGUGAUGUUGCACUCAGGUAGGUCGCUCGCUCUCAA [AK1.2 SS Arginine B] records apparent KD of K4 kissing-loop reporter of 500 nM or higher.
Outgoing: f

Incoming: Is it the case that GGAUCCACCAGUGAUGUUGGAGAAAACUCUAAGGAUAUGACGAAAGUCAGAAGGUGGUAGACUGGACAAAGUCCGGUAGGAUCCA [FmnA10 U30+A78] has apparent KD of K4 kissing-loop reporter reaching or exceeding 500 nM?
Outgoing: f

Incoming: Record GUGGCACGAAAGUGCCACGCAUCCUCUGGCUAGGAUAUCUGGAAACAGAGAAGGAGCUCAUGAGUGAUGUUCAUCUAGAGGAUGC ; criterion: apparent KD of K4 kissing-loop reporter no lower than 500 nM. Met?
Outgoing: t

Incoming: Exam item: decide whether the reported apparent KD of K4 kissing-loop reporter for UGUGAUGUGUAGUGUAAUGUUUUGCGGGAUACCAGAGUCUUUUUAUUCCCUUGGCAGCUUGAGUGAUGUUUGAUGCUGUUCUUGU [llmdmullin] is at least 500 nM.
Outgoing: f

Incoming: Would you say UAUUAAUUGUCAGGAUAUCGUAAUCGAGUGAUGUUCGAAUAUCGACGAUAGUCGAUAUUAUUUAUACGAGAAGGGACAUUAUUUA [JR_SSFMNB_Sub004] shows apparent KD of K4 kissing-loop reporter at minimum 500 nM?
Outgoing: f

Incoming: Kindly determine if apparent KD of K4 kissing-loop reporter recorded for UGUGUUUACCUGACUCAGUGAUGUUGAGAAGGAGCGUGCGAAAGCACAGGUAGGUCGCUCAACCUAAAAUUCAGGUGAGCACUAA [#SwitchBubble 11 #K4Early] is above or exactly 500 nM.
Outgoing: f

Incoming: Say whether AACCUACGAUCACAAUAGUGAUUGUAGGACUAGGAUAUGCUGAAAAGCAGAAGGAGUGAUGUUCCGUCAUGAAUAACAUGACAAA [FmnAX 3 #OpenEnded #K4Late #CoaxialStacking] shows apparent KD of K4 kissing-loop reporter of 500 nM or more.
Outgoing: f

Incoming: Is apparent KD of K4 kissing-loop reporter for AAAAUAAACCAGUGAUGUUGGUAUCCAGAUACCAGCGACGAAAGUCGCCCUUGGCAGCUGUGGACGUACAAAAUAAGUACGUCCU at or above 500 nM?
Outgoing: t

Incoming: Textbook exercise: given the entry ACAAUGAUCAAAGGAUAUCGUAAGUUAUACAUCACGCGAUGAUUCAGAGGCGAGUGAUGUUUGUCUCGAGAAGGUUGGUACCGUC [theeternabot_exclusion_KL_FMN_B_37] , state whether its apparent KD of K4 kissing-loop reporter is greater than or equal to 500 nM.
Outgoing: t

Incoming: State whether the measured apparent KD of K4 kissing-loop reporter reaches 500 nM, counting equality as reaching it, for CCCUAUAUAUGCAGUGAUGUUGCAACUGAUACCAGUAUCGAAAGAUACCCUUGGCAGCGGAAAACCGCUACGUAAUUUAAUAGGG [Ex Theophylline A K4 21]
Outgoing: f

Incoming: Is apparent KD of K4 kissing-loop reporter at least 500 nM? Consider UGUGUUGUUUUGAUGUUUGGUGUUUGUUGGCAGGAUAUCGUAGAGGCGAGAAGGGCUUGGGAGCGGUAUGAGUGAUGUUUGUAGG [deedwrmullin]
Outgoing: f

Incoming: In plain terms: is recorded apparent KD of K4 kissing-loop reporter at least 500 nM for AAGCAGUCACUCGACGCCAUCGAAGAUGGGCGAGGACCGGUACGGCCGCCACUCGGAGUGAUGUUCCGAAGACUGCAAAAUAAAA [MatMod 6 - Jieux - Exclusion - Tryptophan A] ?
Outgoing: f

Where do the numbers come from? From the supplement of paper PMC9170038.
